Every entry's value here was drawn from paper PMC7246340.

The binders listed here are annotated with their pKd.
- Assayed Target: T1, h1x antigen (E3-S5-pore segment fused to the C-terminal coiled coil domain of Kv10.1 and to thioredoxin) (Homo sapiens, UniProt O95259)
- T1 construct: Kv10.1 voltage-gated potassium channel, E3 segment (extracellular linker between S5 and S6 transmembrane segments, extending to the pore loop); numbers count on: Homo sapiens Kv10.1, isoform 1 (UniProt O95259-2); Kv10.1 voltage-gated potassium channel, C-terminal tetramerizing coiled-coil (C-terminal assembly domain); The coiled coil was added with the aim to induce tetramerization; the …
- T1 sequence (O95259 400-477): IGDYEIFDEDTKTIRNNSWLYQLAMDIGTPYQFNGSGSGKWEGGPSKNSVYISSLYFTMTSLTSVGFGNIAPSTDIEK
- Experiment: ELISA; plates coated overnight with 500 ng h1x in TBS, blocked with 2% BSA; VHHs (E. coli culture supernatants) incubated 2 h at different concentrations; detected by mouse anti-His antibody and peroxidase-conjugated anti-mouse; apparent affinities
- Reported Conditions: one partner purified
Reminder that pKd is minus the log10 of a molar concentration.

Ask: Can you share its pKd? I mean this binder: anti-Kv10.1 nanobody G1 (VHH, From a phage display library of a llama immunised with h1x; His tag comes from the phage display vector; source: E. coli TG1TR, culture supernatants (ELISA)) VHH: VQLVEVWGRIGAKRGGSLRLSCTAAGRTFSSYILAWFRQAPGEERKFVAGITGNGETGYSNSVKGRFTISRDNAKNTVLLQMNNLKPEDTAVYYCAAHSRSIYYYRGPDLYDYWGQGTQVTVSS
Reply: 6.37

Ask: What measured pKd goes with anti-Kv10.1 nanobody VHH-C4 (VHH, Short CDR3 (six residues); His tag comes from the phage display vector; The preparation used for SPR is not described; source: E. coli TG1TR, culture supernatants (ELISA)) VHH: RLLLVQSGGGLVQAGGSLRLSCAASGRTFSNYAMYWFRQTPGKDREFVASISYSGTFTDYAGSVKGRFTISRDNAKNTLYLQMNSLRPEDTAVYYCSLDRHYWGPGTQVTVSS ?
Reply: 7.06

Ask: Would you kindly share the measured pKd for anti-Kv10.1 nanobody F5 (VHH, From a phage display library of a llama immunised with h1x; His tag comes from the phage display vector; source: E. coli TG1TR, culture supernatants (ELISA)) VHH: QVQLVQSGGGLVQAGGSLRLSCAASGRTFENYIMAWFRQAPGEERKFVAAITGNGGTGYADSVKGRFTISRDNAKNTVLLQMNSLKPEDTAVYYCAAHSRSSYYYKGPDLYDYWGQGTQVTVSS ?
Reply: 6.33

Ask: Look up pKd: anti-Kv10.1 nanobody F6 (VHH, From a phage display library of a llama immunised with h1x; His tag comes from the phage display vector; source: E. coli TG1TR, culture supernatants (ELISA)) VHH: QVQLVQSGGGLVQAGGSLRLSCTASGRTFGSYILAWFRQTPGEERKFVAGITGNGGTGYSDSVKGRFTISRDNAKNTVLLQMNNLKPEDTAVYYCAAHSRSSYYYKGPDLYDYWGQGTQVTVSS
Reply: 6.75
